Data origin, for the record: the RNAGym collection of RNA variant scans (doi:10.1093/molbev/msab373)

B1: Azoarcus group I ribozyme (parent)
chain: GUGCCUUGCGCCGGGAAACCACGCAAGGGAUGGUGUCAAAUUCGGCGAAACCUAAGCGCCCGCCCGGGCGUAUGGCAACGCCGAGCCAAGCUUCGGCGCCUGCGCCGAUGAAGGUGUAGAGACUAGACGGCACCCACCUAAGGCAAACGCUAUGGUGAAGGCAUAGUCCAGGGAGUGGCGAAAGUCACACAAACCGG

variants of: B1; assay: reverse-splicing fitness (ratio to wild type); higher = more active; in vitro selection; Mg2+ level not given
assayMetric: reverse-splicing fitness

query: Fill in reverse-splicing fitness for record A111C A120U C150G C169G U176C
result: 0.0039

query: Fill in reverse-splicing fitness for record A111G A120U A145C C169G U176C
result: 0.00699

query: Fill in reverse-splicing fitness for record A111G A145U C150A C169A U176G
result: 0.00565

query: Fill in reverse-splicing fitness for record C82A A111G A120C C169G U176C
result: 0.0237

query: Fill in reverse-splicing fitness for record C82A A111G A120G A145U C150U C169U U176A
result: 0.0192

query: Fill in reverse-splicing fitness for record C82G A111C A120C C150A U176C
result: 0.0203

query: Fill in reverse-splicing fitness for record C82A A111G A145U C150A C169U
result: 0.0106

query: Fill in reverse-splicing fitness for record C82A C150U C169A U176C
result: 0.0144

query: Fill in reverse-splicing fitness for record C82U A111U A120C A145G C150G C169A U176G
result: 0.00845

query: Fill in reverse-splicing fitness for record C82G A120U A145C C150G C169A U176G
result: 0.00165

query: Fill in reverse-splicing fitness for record C82G A111C U176G
result: 0.0517

query: Fill in reverse-splicing fitness for record C82A A120G A145G C150U
result: 0.0203

query: Fill in reverse-splicing fitness for record C82U A111G A120C C150A C169G U176C
result: 0.0191

query: Fill in reverse-splicing fitness for record C82G U176G
result: 0.14

query: Fill in reverse-splicing fitness for record C82G A111C A120U A145U C169A U176C
result: 0.00242

query: Fill in reverse-splicing fitness for record C82G A120C A145U C150A U176C
result: 0.0216

query: Fill in reverse-splicing fitness for record C82U A120U C150U C169A U176G
result: 0.00208

query: Fill in reverse-splicing fitness for record A111U A120U C169U U176G
result: 0.00332

query: Fill in reverse-splicing fitness for record A111C A120C A145U C150A C169U U176A
result: 0.0195

query: Fill in reverse-splicing fitness for record C82U A111C A120C A145C C150G C169G U176G
result: 0.00552

query: Fill in reverse-splicing fitness for record C82G A111U A120G A145U C169A
result: 0.00825

query: Fill in reverse-splicing fitness for record C82G A111U A120C A145G C150G C169A U176A
result: 0.0145

query: Fill in reverse-splicing fitness for record A111U A120U A145C C150U U176A
result: 0.0565

query: Fill in reverse-splicing fitness for record A120U A145U C150U C169G U176C
result: 0.0637

query: Fill in reverse-splicing fitness for record C82A A120C A145C
result: 0.124

query: Fill in reverse-splicing fitness for record C82U A111U A145G C150G C169A U176A
result: 0.0125

query: Fill in reverse-splicing fitness for record C82A A111C A145C C169U U176C
result: 0.0138

query: Fill in reverse-splicing fitness for record C82G A111U A120C A145U C150G C169A U176G
result: 0.00704

query: Fill in reverse-splicing fitness for record A111G A120G A145U C150U C169U U176C
result: 0.0675

query: Fill in reverse-splicing fitness for record A111C A145G C169U U176G
result: 0.00717

query: Fill in reverse-splicing fitness for record C82U A111U A120G A145U C150U U176G
result: 0.00443

query: Fill in reverse-splicing fitness for record C82U A145G C150U C169U U176A
result: 0.0142

query: Fill in reverse-splicing fitness for record A111C A120U A145C C150G C169G
result: 0.00714

query: Fill in reverse-splicing fitness for record C82A A111G A120G A145G C169G U176C
result: 0.0276

query: Fill in reverse-splicing fitness for record C82U A111G A145G C150A
result: 0.0568

query: Fill in reverse-splicing fitness for record C82G A111U A145G C150G C169A
result: 0.00977

query: Fill in reverse-splicing fitness for record C82A A111U C150A C169U U176G
result: 0.00835

query: Fill in reverse-splicing fitness for record C82G A120C A145U C150U C169A U176C
result: 0.00984

query: Fill in reverse-splicing fitness for record A111G A120C A145C C150G C169A
result: 0.00873

query: Fill in reverse-splicing fitness for record A145U C150U C169U U176C
result: 0.141

query: Fill in reverse-splicing fitness for record C82U A111U A120U A145C C169U U176A
result: 0.00247

query: Fill in reverse-splicing fitness for record C82A A111G A145U C150G U176C
result: 0.0181

query: Fill in reverse-splicing fitness for record C82A A111U A120G A145C U176A
result: 0.0112

query: Fill in reverse-splicing fitness for record C82G A111U A145G C150U U176C
result: 0.196

query: Fill in reverse-splicing fitness for record C82A A111U C169A U176C
result: 0.0202

query: Fill in reverse-splicing fitness for record C82U A111U A145G C150G C169G U176C
result: 0.0116
